The entries below are paired with their reported inhibition.
- assay_details: DAX1 (NR0B1) inhibitors on StAR promoter, primary screen, cell-based, luminescence, SF-1 (NR5A1), full-length DAX-1 (AID 652010);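 also: 0% = DAX-1 cells with DMSO and 100% = cells lacking DAX-1 with DMSO; higher inhibition means more luminescence from relief of DAX-1 repression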
- condition_label: HEK293T StAR-luciferase reporter, SF-1/DAX-1 repression relief; at 6.8 µM; hits give high values
Among all 370,000 compounds or so, about 4,100 (1.1%) were called active. The sample holds actives, similar compounds and a random draw of the others, so the mix is not that of the screen.
readout_kind: inhibition (%)

molecule	numeric_result
COc1cc(NC(=O)c2ccc(-c3csc(C)n3)cc2)c(OC)cc1Cl	0.05
Cn1c(SCC(=O)Nc2cccc(NC(=O)c3cccs3)c2)nnc1-c1ccncc1	-0.42
N#Cc1ccc(OCCCN2CCC(C(O)(c3ccccc3)c3ccccc3)CC2)c(F)c1	-0.17
COc1ccc(-n2c(SCC(=O)Nc3ccc4c(c3)OCCO4)nnc2-c2ccc(Cl)cc2)cc1	0.07
O=S(=O)(Nc1cccc(-c2ccc(N3CCOCC3)nn2)c1)c1ccc(Cl)c(Cl)c1	0.25
CCCc1cc(C(=O)Nc2ccc(Cl)cn2)cs1	16.1
Clc1ccc(-n2c(SC/C=C/c3ccccc3)nnc2-c2ccco2)cc1	-1.85
CCCCOCCCNC(=O)C[C@H]1C[C@@]2(C(=O)OC)C(=C[C@H](COCc3ccccc3)O[C@@H]2C)N(Cc2cccc3ccccc23)C1=O	-0.91
CCOC(=O)N1CCN(C(=O)C[C@H]2C[C@@]3(C(=O)OC)C(=C[C@H](C4CCCC4)O[C@@H]3C)N(Cc3ccccc3)C2=O)CC1	-0.29
Cc1ccc(Cn2cc(CN3[C@@H](C)COc4cc(Br)ccc4S3(=O)=O)nn2)cc1	-0.52
Cc1ccc(NC(=O)Nc2cc(C)nn2-c2ccccc2)cc1	-0.81
CCCCC[C@H](C)N1C[C@@H](COCc2ccccc2)Oc2cc(N3CC[C@@H](N(C)C)C3)ccc2S1(=O)=O	0.28
COc1ccc2cc(C(=O)C3CCCN(C(=O)c4sc(C)nc4C)C3)ccc2c1 (stereo unspecified)	0.57
Cc1c(N=Nc2ccc(N(C)C)cc2)c(=O)n(-c2ccccc2)n1C	4.03
COc1cccc(C(=O)Nc2cc3c(cc2Br)OCCCO3)c1	2.47
CCOc1ccc2nc(C(=O)N3CCCC(C)C3)sc2c1 (stereo unspecified)	4.1
COc1ccc(CCNC(=O)CSc2nc3c([nH]2)c(=O)n(C)c(=O)n3C)cc1	0.31
O=C(Nc1ccccc1C(=O)N1CCOCC1)c1ccc(Cl)cc1	-0.37
COCCCNC(=O)CN1C(=O)CSc2ccc(S(=O)(=O)N3CCOCC3)cc21	0.4
Cc1cc(OCCCC(=O)NCCN2C(=O)S/C(=C\c3cccnc3)C2=O)ccc1Cl	-0.22
CCOC(=O)N1CCN(C(=O)C[C@@H]2C(=O)N(CCc3ccc(Cl)cc3)C3=CCCC[C@]32C(=O)OCC)CC1	-2.96
Cc1nc(-c2ccc(NC(=O)c3cccs3)cc2)cs1	3.66
C/C(=N/NC(=S)Nc1ccccc1)c1ccc2c(c1)OCO2	0.83
CC(NC(=O)COC(=O)CCC(=O)c1ccc(Cl)cc1)c1ccccc1 (stereo unspecified)	-0.89
Cc1nc2cc(NCc3cccs3)ccc2n1C	2.41
COC(=O)c1ccc(NC(=S)NN2CCOCC2)cc1	1.02
CCCCCN1CCCCC(NC(=O)C(C)CCC)C1=O (stereo unspecified)	0.06
Cc1ccc(C(=O)NNC(=O)c2ccc3c(c2)OCCO3)cc1	5.23
COc1ccc(N2CC(C(=O)NCCN3C(=O)S/C(=C\c4cccnc4)C3=O)CC2=O)c(OC)c1 (stereo unspecified)	4.36
CC(OC(=O)CCCOc1ccccc1)C(=O)Nc1ccc(Cl)cn1 (stereo unspecified)	3.13
Cc1c(C=O)n(C)n(-c2ccccc2)c1=O	0.3
COc1ccc(C(=O)COC(=O)C(O)c2ccccc2)c(OC)c1 (stereo unspecified)	3.84
COc1ccc(C(=O)COC(=O)CN2C(=O)C3CC=CCC3C2=O)c(OC)c1 (stereo unspecified)	1.03
Cc1ccc(C(=O)C2CCN(CC(=O)NCCC(C)C)CC2)cc1	-0.3
O=C(N1CCOCC1)N1CC[C@H]2[C@H](CCCN2Cc2ccc(F)cc2)C1	0.58
CCC(=O)Nc1ccc(C(=O)Nc2cc(C)on2)cc1	-0.34

The values you see were collected from PubChem BioAssay AID652010.
